These entries and their values trace back to ChEMBL document CHEMBL1153252.

system: Vero; assay: Compound was evaluated for the toxicity in rapidly dividing Vero cells (African Green monkeys kidney cells); type: functional, cell-based; conditions: Chlorocebus sabaeus
pIC50: −log10 of the molar value.
readoutKind: pIC50

Query block: Which pIC50 value is on record for O=C(O)CO/N=C1\CCC23c4c5c6c7c8c9c%10c%11c%12c%13c%14c%15c%16c%17c%18c(c9c6c6c%18c9c%17c%17c%15c%15c%18c%14c%14c%12c%12c%11c8c(c8c%11c2c2c4c4c(c56)c9c5c4c4c2c2c%11c(c8%12)c%14c%18c2c4c%15c%175)C73C1)C%10C%13%16 (configuration not stated) ?
Result block: < 4.00

Query block: // same read-out, input: CC1C=CC(COC(=O)CCC(=O)O)C23c4c5c6c7c8c9c%10c%11c%12c%13c%14c%15c%16c%17c%18c(c9c6c6c%18c9c%17c%17c%15c%15c%18c%14c%14c%12c%12c%11c8c(c8c%11c2c2c4c4c(c56)c9c5c4c4c2c2c%11c(c8%12)c%14c%18c2c4c%15c%175)C713)C%10C%13%16 (configuration not stated)
Result block: < 4.00
